# System: Staphylococcus aureus
# ASSAY METHOD TEXT: Antibacterial activity against Staphylococcus aureus by broth microdilution method
# Format: functional
MEASUREMENT KIND: MIC90 (µg/mL)

[1] COC1CN(c2c(F)cc(N3C[C@H](CNC(C)=O)OC3=O)cc2F)C1
[2] CC(=O)NC[C@H]1CN(c2cc(F)c(N3CC(C)(O)C3)c(F)c2)C(=O)O1
Lab note: check whether 1 or 2 shows the higher recorded MIC90. Give the label under which the chosen entry appears.
2
(2: 4 µg/mL, 1: 2 µg/mL)

====

# Tested on: Staphylococcus aureus
# ASSAY METHOD TEXT: Antibacterial activity against Staphylococcus aureus by broth microdilution method
# Format: functional
MEASUREMENT KIND: MIC90 (µg/mL)

The following compounds have reported results that may help.
I would be grateful if you could share the reported MIC90 for CCC1(O)CN(c2c(F)cc(N3C[C@H](CNC(C)=O)OC3=O)cc2F)C1 .
4

I would be grateful if you could share the reported MIC90 for COC1(C)CN(c2c(F)cc(N3C[C@H](CNC(C)=O)OC3=O)cc2F)C1 .
4

I would be grateful if you could share the reported MIC90 for CC(=O)NC[C@H]1CN(c2cc(F)c(N3CC(O)C3)c(F)c2)C(=O)O1 .
2

I would be grateful if you could share the reported MIC90 for CC(=O)NC[C@H]1CN(c2cc(F)c(N3CC(F)C3)c(F)c2)C(=O)O1 .
2

I would be grateful if you could share the reported MIC90 for CC(=O)NC[C@H]1CN(c2ccc(N3CCOCC3)c(F)c2)C(=O)O1 [LINEZOLID] .
4

I would be grateful if you could share the reported MIC90 for CC(=O)NC[C@H]1CN(c2cc(F)c(N3CC(C)(F)C3)c(F)c2)C(=O)O1 .
4

I would be grateful if you could share the reported MIC90 for CC(=O)NC[C@H]1CN(c2cc(F)c(N3CC(O)(C(F)(F)F)C3)c(F)c2)C(=O)O1 .
4

[A] CC(=O)NC[C@H]1CN(c2cc(F)c(N3CCC(C)(O)CC3)c(F)c2)C(=O)O1
[B] CC(=O)NC[C@H]1CN(c2cc(F)c(N3CCC(C)(CC#N)CC3)c(F)c2)C(=O)O1
Lab note: check whether A or B shows the higher recorded MIC90. Give the label under which the chosen entry appears.
A
(A: 4 µg/mL, B: 2 µg/mL)
